- MEASUREMENT PROTOCOL: viability loss with induced miR-34 in A549 – imaging, A549 dox-inducible miR-34, nuclei and caspase counts, primary screen (AID 1347080)
- MEASUREMENT SETUP: A549 miR-34 inducible, Hoechst nuclei count, 48 h; stronger effect = lower value; cell number ratio, induced over uninduced
MEASURED QUANTITY: fold change

COMPOUND	EXPERIMENTAL RESULT
CN[C@@H]1[C@H](O[C@H]2[C@H](O[C@@H]3[C@@H](O)[C@H](O)[C@@H](N=C(N)N)[C@H](O)[C@H]3N=C(N)N)O[C@@H](C)[C@]2(O)CO)O[C@@H](CO)[C@H](O)[C@H]1O	0.925
CC(C)C[C@H](NC(=O)[C@@H](COC(C)(C)C)NC(=O)[C@H](Cc1ccc(O)cc1)NC(=O)[C@H](CO)NC(=O)[C@H](Cc1c[nH]c2ccccc12)NC(=O)[C@H](Cc1cnc[nH]1)NC(=O)[C@@H]1CCC(=O)N1)C(=O)N[C@@H](CCCN=C(N)N)C(=O)N1CCC[C@H]1C(=O)NNC(N)=O	0.891
NC1CCCN(c2c(C=C3SC(=O)NC3=O)cccc2-c2ccccc2)C1 (configuration not stated)	0.91
CCCC(=O)O	0.924
C[C@H](Cc1ccccc1)Nc1ncnc2c1ncn2[C@@H]1O[C@H](CO)[C@H](O)C1O (some centres not stated)	1.08
COc1cccc2c1[C@@H]1CN(CCCCn3c(=O)[nH]c4c(sc5ncc(-c6ccccc6)nc54)c3=O)C[C@@H]1CO2	1.07
C=C1C(=O)O[C@@H]2[C@H]3O[C@]3(C)CCC=C(C)CC[C@@H]12	1.05

----------
Measured cell count of individual entries
- MEASUREMENT PROTOCOL: viability loss with induced miR-34 in A549 – imaging, A549 dox-inducible miR-34, nuclei and caspase counts, primary screen (AID 1347080)
- MEASUREMENT SETUP: A549 miR-34 inducible, Hoechst nuclei count, 48 h; measured here: total cells with miR-34 induction; stronger effect = lower value

MOLECULE	cell count
O=C1c2c(O)cccc2[C@H]([C@@H]2OC(CO)C(O)C(O)C2O)c2cc(CO)cc(O)c21 (stereo not given in full)	8560
CNC(=O)[C@H]1O[C@@H](n2cnc3c(NCc4ccc(N)cc4)ncnc32)C(O)[C@H]1O (stereo not given in full)	9670
Cc1nsc(NC(=O)N2CCCC(C)(O)C2)n1 (stereo not given)	9190
CC[C@H](C)C(=O)O[C@H]1C[C@H](O)C=C2C=C[C@H](C)[C@H](CC[C@@H]3C[C@@H](O)CC(=O)O3)[C@H]21	9300
CC(=O)/C=C1\C(=O)N(C)c2ccccc21	6920

----------
- MEASUREMENT PROTOCOL: drug combination growth inhibition, ovarian cancer – cell-based, oncology-focused library, rucaparib conditional, profiling panel (AID 1508598)
- MEASUREMENT SETUP: patient-derived ovarian cancer cells, CellTiter-Glo viability, 144 h; at 0.0781 µM; OCI-C5x cells; without rucaparib; stronger effect = lower value
*1 amine or outer side, *2 acyl side, *3 side chain or, on linkers, in order; H or OH if unused. Where a SMILES comes first, the peptide text is derived from it. Bridges are numbered along the chain shown (N, C = ends). Roman numbers before positions name the chains, in order. [ ]: non-standard residue; d: D form. The star is where a group is joined. Hexamethylenediamine = C(CCCN[*:2])CCN[*:1]; Dip = N[C@H](C(=O)O)C(c1ccccc1)c1ccccc1; Chg = N[C@H](C(=O)O)C1CCCCC1; NMeA = CN[C@@H](C)C(=O)O; Cbz = O=C(OCc1ccccc1)*; CH2F = FC*
MEASURED QUANTITY: viability (%)

MOLECULE	MEASURED QUANTITY	EXPERIMENTAL RESULT
CC(=O)O[C@@]1(C(C)=O)CC[C@H]2[C@@H]3C=C(C)C4=CC(=O)CC[C@]4(C)[C@@H]3CC[C@@]21C	viability	94.7
CN[C@@H](C)C(=O)N[C@H](C(=O)N1CCC[C@H]1C(=O)N[C@H](C(=O)NCCCCCCNC(=O)[C@@H](NC(=O)[C@@H]1CCCN1C(=O)[C@@H](NC(=O)[C@H](C)NC)C1CCCCC1)C(c1ccccc1)c1ccccc1)C(c1ccccc1)c1ccccc1)C1CCCCC1 (I: H-[NMeA][Chg]P[Dip] / II: H-[NMeA][Chg]P[Dip]; linker I:C-II:C via Hexamethylenediamine)	viability	112
COc1ccc(C2=N[C@H](c3ccc(Cl)cc3)[C@@H](c3ccc(Cl)cc3)N2C(=O)N2CCNC(=O)C2)c(OC(C)C)c1	viability	111
C[C@@]12CC[C@H]3c4ccc(O)cc4C[C@@H](CCCCCCCCCS(=O)CCCC(F)(F)C(F)(F)F)[C@H]3[C@@H]1CC[C@@H]2O (some centres not stated)	viability	112
COc1cccc2c1C(=O)c1c(O)c3c(c(O)c1C2=O)C[C@@](O)(C(C)=O)C[C@H]3O[C@H]1C[C@H](N)[C@H](O)[C@H](C)O1	viability	105
COc1ccc(C2=N[C@@H](c3ccc(Cl)cc3)[C@H](c3ccc(Cl)cc3)N2C(=O)N2CCNC(=O)C2)c(OC(C)C)c1	viability	99.5
CCNC(=O)c1noc(-c2cc(Cl)c(O)cc2O)c1-c1ccc(OC)cc1	viability	39.7
CCOC(=O)c1[nH]c2cc(Cl)ccc2c1C(C(=O)NC(C)(C)C)N(C=O)Cc1ccc(Cl)cc1 (configuration not stated)	viability	102
Cc1cc(C)c(-c2csc(NC(=O)c3ccccc3)n2)c(C)c1	viability	105
C[C@]12C=CC(=O)C=C1CC[C@@H]1[C@H]2C(=O)C[C@@]2(C)[C@H]1CC[C@@]2(O)C(=O)CO	viability	101
CO[C@H]1C[C@@H]2CC[C@@H](C)[C@@](O)(O2)C(=O)C(=O)N2CCCC[C@H]2C(=O)O[C@H]([C@H](C)C[C@@H]2CC[C@@H](O)[C@H](OC)C2)CC(=O)[C@H](C)/C=C(\C)[C@@H](O)[C@H](OC)C(=O)[C@H](C)C[C@H](C)/C=C/C=C/C=C/1C	viability	89.7
COC(=O)C[C@H](NC(=O)[C@H](C)NC(=O)[C@@H](NC(=O)OCc1ccccc1)C(C)C)C(=O)CF (Cbz-Val-Ala-Asp(OMe)-CH2F)	viability	120
Cc1cc(NC(=O)c2cccc(NC(=O)/C=C/CN(C)C)c2)ccc1Nc1nccc(-c2cccnc2)n1	viability	183
Cc1ccc(NC(=O)c2ccc(CN3CCN(C)CC3)cc2)cc1Nc1nc(-c2cccnc2)cs1	viability	123
COc1cc(Br)c(Nc2nc(-c3c(C)nc4ncccn34)cs2)c(Br)c1	viability	111
CCC1=CC2CN(C1)Cc1c([nH]c3ccccc13)[C@@](C(=O)OC)(c1cc3c(cc1OC)N(C)[C@H]1[C@@](O)(C(=O)OC)[C@H](OC(C)=O)[C@]4(CC)C=CCN5CC[C@@]31[C@H]54)C2 (some centres not stated)	viability	22.9
C[C@@]1(c2nc3c(C(N)=O)cccc3[nH]2)CCCN1	viability	104

----------
- MEASUREMENT PROTOCOL: growth inhibition, single agents and combos, HD-MB03, cell-based, BGB or cisplatin IC20 combos, synergistic combos for chromothripsis tumors (AID 1671455);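 note: 0% = vehicle DMSO and 100% = high DMSO as cytotoxic control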
- MEASUREMENT SETUP: HD-MB03 medulloblastoma cells, measured here: combo with BGB at IC20, at 0.5 µM, stronger effect = higher value
Measured inhibition of individual entries

COMPOUND	inhibition [%]
CC1OC(n2cc(F)c(=O)[nH]c2=O)C(O)C1O (stereo unspecified)	-17.8
O=c1[nH]c(=O)n(C2CC(O)C(CO)O2)cc1I (stereo unspecified)	-3.12
O=C(O)c1cc2cccc([N+](=O)[O-])c2[nH]1	-8.83
CC(=O)C1(O)Cc2c(O)c3c(c(O)c2C(OC2CC(N)C(O)C(C)O2)C1)C(=O)c1ccccc1C3=O (stereo unspecified)	89.5
CN(C)C(=S)NN=C(c1ccccn1)c1ccccn1	70.3
NC(=S)NN=Cc1ncccc1N	-13
C#CCC(CCCCCC)C(=O)O (stereo unspecified)	0.099
NC(=O)c1cccc2cn(-c3ccc(C4CCCNC4)cc3)nc12 (stereo unspecified)	-17.4
N#Cc1ccc(OC2CCC(NC(=O)CCSc3nc4ccccc4c(=O)[nH]3)CC2)cc1 (stereo unspecified)	2.46
CC(Oc1cc(-c2cnn(C3CCNCC3)c2)cnc1N)c1c(Cl)ccc(F)c1Cl (stereo unspecified)	-2.99
Cc1cc(C)c(Nc2ccnc(Nc3ccc(C#N)cc3)n2)c(C)c1	-21.5

----------
Measured cell count of individual entries
- MEASUREMENT PROTOCOL: viability loss with induced miR-34 in A549 – imaging, A549 dox-inducible miR-34, nuclei and caspase counts, primary screen (AID 1347080)
- MEASUREMENT SETUP: A549 miR-34 inducible, Hoechst nuclei count, 48 h; measured here: total cells with miR-34 induction; stronger effect = lower value
MEASURED QUANTITY: cell count

COMPOUND	EXPERIMENTAL RESULT
CCSC(N)=Nc1ccc(C(F)(F)F)cc1	5930
CNC(=O)c1ccccc1-c1cccc2ccccc12	8250
CC(=O)OCC(=O)[C@@]1(O)CC[C@H]2[C@@H]3CCC4=CC(=O)CC[C@]4(C)C3(F)C(=O)C[C@@]21C (stereo partly specified)	6080
c1cc(CN2CCN3CCCC3C2)n(-c2nccs2)c1 (stereo unspecified)	8290
c1ccc2c(c1)CCC[C@H]2Nc1nc2ccccc2[nH]1	7820
CC(C)=CCn1cnc(=N)c2[nH]cnc21	8970

Every entry's value here was drawn from PubChem BioAssay.
